Data origin: patent US4845221A

Test system: D-2 dopamine receptor
Experiment: inhibition of 3H-spiroperidol binding, homogenized limbic brain tissue (D-2 dopamine receptor affinity)
Details: 1 μM; 3H-spiroperidol, limbic brain tissue
assay-readout: % Inhibition 1 μM D-2 (%)

Completed entries (count: 4):
molecule	number
COc1ccc2c(c1)CC(N1CCN(c3ncccn3)CC1)CC2 (centres unmarked)	11
Oc1ccc2c(c1)CCC(N1CCN(c3cccc(C(F)(F)F)c3)CC1)C2 (centres unmarked)	72
Oc1cccc2c1CC(N1CCN(c3cccc(C(F)(F)F)c3)CC1)CC2 (centres unmarked)	46
COc1cccc2c1CC(N1CCN(c3ncccn3)CC1)CC2 (centres unmarked)	3

A. Oc1cccc2c1CC(N1CCN(c3ncccn3)CC1)CC2 (centres unmarked)
B. COc1ccc2c(c1)CC(N1CCN(c3cccc(C(F)(F)F)c3)CC1)CC2 (centres unmarked)
C. COc1ccccc1N1CCN(C2CCc3cccc(OC)c3C2)CC1 (centres unmarked)
q: Rank entries according to their % Inhibition 1 μM D-2, from the largest number down. Please respond by ranking the labels in the order requested.
a: C, B, A

A. COc1ccc2c(c1)CCC(N1CCN(c3cccc(C(F)(F)F)c3)CC1)C2 (centres unmarked)
B. Oc1ccc2c(c1)CCC(N1CCN(c3ncccn3)CC1)C2 (centres unmarked)
q: Response body: label of entry with the larger % Inhibition 1 μM D-2; valid values A , B . Your choice should be expressed through its label.
a: A
(A: 65%, B: 7%)

P. COc1cccc2c1CC(N1CCN(c3cccc(C(F)(F)F)c3)CC1)CC2 (centres unmarked)
Q. COc1ccc2c(c1)CC(N1CCN(c3ccccc3OC)CC1)CC2 (centres unmarked)
q: Select one. Lower % Inhibition 1 μM D-2: P or Q Pick one and reply with its label.
a: P
